Value source: PubChem BioAssay

# Tested on: transactivating tegument protein VP16 (Human herpesvirus 1), Gal4-VP16 luciferase reporter
# MEASUREMENT_PROTOCOL: VP16 transactivation inhibitors, counter-screen for SRC3 inhibitor project, cell-based, luminescence, high throughput (AID 588794)
# PROTOCOL_CONDITIONS: mammalian cells, VP16-driven luciferase reporter luminescence; at 3.6 µM; active compounds read high
TEST_READOUT: inhibition (%)
State the answer as a number, implicitly in %.

Prompt: State its inhibition on transactivating tegument protein VP16 (Human herpesvirus 1), Gal4-VP16 luciferase reporter: O=C1CC(=O)OC(c2ccc([N+](=O)[O-])cc2)O1
Completion: 40.5

Prompt: Repeat with Cc1ccc(-c2csc(=Nc3cccnc3)n2CCCn2ccnc2)cc1C
Completion: 51.5

Prompt: // repeat for CCOC(=O)N=Nc1c2ccccc2c2nc3no[nH]c3nc12 and report
Completion: 93.1

Prompt: // next record CSc1cccc(N/C(=N/S(=O)(=O)c2ccccc2)NN)c1
Completion: 0.02

Prompt: Next entry: Cn1c2c(c(=O)n(C)c1=O)C(C(F)(F)F)(C(F)(F)F)N=C(C1CCCCC1)N2
Completion: 20.6

Prompt: Then what about the molecule COc1ccc(-[n+]2c(C)cc(/C=C3\Sc4ccccc4N3C)cc2C)cc1 ?
Completion: 83.5

Prompt: One more molecule: O=C(/C=C/c1ccccc1)CC(O)(c1ccccc1)C(F)(F)F (stereo unspecified)
Completion: 31

Prompt: Continue with N=c1c2c(-c3ccccc3)c(-c3ccccc3)n(Cc3ccccc3)c2ncn1CCO
Completion: 61

Prompt: Query Cc1nnc(SCC(=O)N2CCC(c3noc4ccc(F)cc34)CC2)s1 next
Completion: 48.4

Prompt: Same thing, different molecule: CCc1nc2ccccc2c(=O)n1NCCc1ccccc1
Completion: 2.67

Prompt: Same thing, different molecule: CN1C(=O)C2(C(C#N)=C(N)N(c3cc(Cl)cc(Cl)c3)C3=C2C(=O)CC(C)(C)C3)c2ccccc21 (stereo unspecified)
Completion: 25.6

Prompt: What do we get for O=C(Nc1cccc2ccccc12)OC1C=CS(=O)(=O)C1 (stereo unspecified) ?
Completion: 15.6

Prompt: Input Cn1c(/C=C/c2ccc(Cl)cc2)c([N+](=O)[O-])c(=O)n(C)c1=O
Completion: 35.7

Prompt: Item: CCC1C(=O)NCCN1C(=O)c1ccc2nc(Cc3ccc(OC)cc3)oc2c1 (stereo unspecified)
Completion: -0.9

Prompt: Also need COC(=O)Cc1[nH]n(-c2nc3ccccc3s2)c(=O)c1C(C)=Nc1ccc(OC)cc1 , thanks.
Completion: 78.4

Prompt: Now try O=c1[nH]c(=O)n([C@H]2C[C@H](O)[C@@H](CO)O2)cc1F .
Completion: 31

Prompt: What do you get for Cc1ccc(-n2c(O)c(C=Nc3cc(C)on3)c3ccccc3c2=O)c(C)c1 ?
Completion: 39.9

Prompt: Try CN(C)S(=O)(=O)c1cccc(-c2nn(-c3ccccc3)cc2/C=C(\C#N)c2nc3ccccc3[nH]2)c1 next.
Completion: -4.19

Prompt: And what about the molecule CC(C)c1ccc(NC(=O)C2CCCN(S(=O)(=O)c3cccnc3)C2)cc1 (stereo unspecified) ?
Completion: 4.41

Prompt: Moving on to Cc1ncoc1C(=O)NC1CCCc2c1cnn2-c1ccc(C(C)(C)C)cc1 (stereo unspecified)
Completion: 41.8

Prompt: Here is the next molecule: COc1ccccc1-[n+]1c(C)cc(/C=C2\Sc3ccccc3N2C)cc1C
Completion: 85.2
